- assayMethodText: HPLC-MS/MS quantification of 9 compounds in plasma of RSV-infected mice after Scutellaria baicalensis Georgi administration
- Format: in vivo, BALB/c mice
- Design: unit not given here
- experimentalParameters: RSV-infected mice; 0.083 h after last gavage of Scutellaria baicalensis Georgi extract; mean ± SD, n = 6
Attribute: drug-containing plasma content
readoutKind: drug-containing plasma content

{"columns": ["molecule", "endpointResult"],
 "data": [
  ["O=c1cc(-c2ccccc2)oc2c(O)c(O)cc(O)c12", 28.17],
  ["COc1c(O)cc(O)c2c(=O)cc(-c3ccccc3)oc12", 344.59],
  ["O=c1cc(-c2ccccc2)oc2cc(O)cc(O)c12", 0],
  ["COc1c(O[C@@H]2O[C@H](C(=O)O)[C@@H](O)[C@H](O)[C@H]2O)cc(O)c2c(=O)cc(-c3ccccc3)oc12 [Wogonoside]", 553.37],
  ["COc1c(OC2OC(C(=O)O)C(O)C(O)C2O)cc2oc(-c3ccccc3)cc(=O)c2c1O [Oroxylin A 7-O-beta-D-glucuronide]", 462.93],
  ["COc1c(O)cc2oc(-c3ccccc3)cc(=O)c2c1O", 13.47]
]}

* * *

- assayMethodText: HPLC-MS/MS quantification of 9 compounds in plasma of RSV-infected mice after Scutellaria baicalensis Georgi administration
- Format: in vivo, BALB/c mice
- Design: unit not given here
- experimentalParameters: RSV-infected mice; 0.25 h after last gavage of Scutellaria baicalensis Georgi extract; mean ± SD, n = 6
Attribute: drug-containing plasma content
readoutKind: drug-containing plasma content

{"columns": ["compound", "endpointResult"],
 "data": [
  ["O=c1cc(-c2ccccc2)oc2cc(O)cc(O)c12 [Chrysin]", 0],
  ["COc1c(O)cc(O)c2c(=O)cc(-c3ccccc3)oc12 [Wogonin]", 471.39],
  ["COc1c(OC2OC(C(=O)O)C(O)C(O)C2O)cc2oc(-c3ccccc3)cc(=O)c2c1O [Oroxylin A 7-O-beta-D-glucuronide]", 143.83],
  ["COc1c(O[C@@H]2O[C@H](C(=O)O)[C@@H](O)[C@H](O)[C@H]2O)cc(O)c2c(=O)cc(-c3ccccc3)oc12 [Wogonoside]", 928.49],
  ["O=c1cc(-c2ccccc2)oc2c(O)c(O)cc(O)c12 [Norwogonin]", 23.48],
  ["COc1c(O)cc2oc(-c3ccccc3)cc(=O)c2c1O [Oroxylin A]", 63.52]
]}

* * *

Attribute: Stability 3-Freeze-Thaw Cycles RE
- assayMethodText: Stability of 9 compounds in mouse plasma under storage conditions
- Format: in vitro ADME
- experimentalParameters: 3 times repeated freeze-thaw at −80 °C, medium QC (320 or 160 ng/mL), n = 6
readoutKind: Stability 3-Freeze-Thaw Cycles RE (%)

{"columns": ["molecule", "readoutKind", "scaleUnit", "endpointResult"],
 "data": [
  ["O=C(O)[C@H]1O[C@@H](Oc2cc(O)c3c(=O)cc(-c4ccc(O)cc4)oc3c2)[C@H](O)[C@@H](O)[C@@H]1O [Apigenin-7-glucuronide]", "Stability 3-Freeze-Thaw Cycles RE", "%", "−0.72"],
  ["O=c1cc(-c2ccccc2)oc2cc(O)cc(O)c12", "Stability 3-Freeze-Thaw Cycles RE", "%", "−5.15"],
  ["COc1c(OC2OC(C(=O)O)C(O)C(O)C2O)cc2oc(-c3ccccc3)cc(=O)c2c1O [Oroxylin A 7-O-beta-D-glucuronide]", "Stability 3-Freeze-Thaw Cycles RE", "%", 3.08],
  ["COc1c(O)cc(O)c2c(=O)cc(-c3ccccc3)oc12", "Stability 3-Freeze-Thaw Cycles RE", "%", 9.82],
  ["COc1c(O[C@@H]2O[C@H](C(=O)O)[C@@H](O)[C@H](O)[C@H]2O)cc(O)c2c(=O)cc(-c3ccccc3)oc12 [Wogonoside]", "Stability 3-Freeze-Thaw Cycles RE", "%", 0.60],
  ["O=C(O)[C@H]1O[C@@H](Oc2cc3oc(-c4ccccc4)cc(=O)c3c(O)c2O)[C@H](O)[C@@H](O)[C@@H]1O", "Stability 3-Freeze-Thaw Cycles RE", "%", "−2.37"],
  ["O=c1cc(-c2ccccc2)oc2c(O)c(O)cc(O)c12", "Stability 3-Freeze-Thaw Cycles RE", "%", 7.06],
  ["COc1c(O)cc2oc(-c3ccccc3)cc(=O)c2c1O", "Stability 3-Freeze-Thaw Cycles RE", "%", "−8.41"]
]}
